Molecular target: phospho-Tyr751 PDGFRβ (Homo sapiens, UniProt P09619)
Construct: phosphorylation of PDGFR expressed on MG63 osteosarcoma cells; endogenous in cells; host or cells: MG63 osteosarcoma cells
Sequence (P09619 33-1106): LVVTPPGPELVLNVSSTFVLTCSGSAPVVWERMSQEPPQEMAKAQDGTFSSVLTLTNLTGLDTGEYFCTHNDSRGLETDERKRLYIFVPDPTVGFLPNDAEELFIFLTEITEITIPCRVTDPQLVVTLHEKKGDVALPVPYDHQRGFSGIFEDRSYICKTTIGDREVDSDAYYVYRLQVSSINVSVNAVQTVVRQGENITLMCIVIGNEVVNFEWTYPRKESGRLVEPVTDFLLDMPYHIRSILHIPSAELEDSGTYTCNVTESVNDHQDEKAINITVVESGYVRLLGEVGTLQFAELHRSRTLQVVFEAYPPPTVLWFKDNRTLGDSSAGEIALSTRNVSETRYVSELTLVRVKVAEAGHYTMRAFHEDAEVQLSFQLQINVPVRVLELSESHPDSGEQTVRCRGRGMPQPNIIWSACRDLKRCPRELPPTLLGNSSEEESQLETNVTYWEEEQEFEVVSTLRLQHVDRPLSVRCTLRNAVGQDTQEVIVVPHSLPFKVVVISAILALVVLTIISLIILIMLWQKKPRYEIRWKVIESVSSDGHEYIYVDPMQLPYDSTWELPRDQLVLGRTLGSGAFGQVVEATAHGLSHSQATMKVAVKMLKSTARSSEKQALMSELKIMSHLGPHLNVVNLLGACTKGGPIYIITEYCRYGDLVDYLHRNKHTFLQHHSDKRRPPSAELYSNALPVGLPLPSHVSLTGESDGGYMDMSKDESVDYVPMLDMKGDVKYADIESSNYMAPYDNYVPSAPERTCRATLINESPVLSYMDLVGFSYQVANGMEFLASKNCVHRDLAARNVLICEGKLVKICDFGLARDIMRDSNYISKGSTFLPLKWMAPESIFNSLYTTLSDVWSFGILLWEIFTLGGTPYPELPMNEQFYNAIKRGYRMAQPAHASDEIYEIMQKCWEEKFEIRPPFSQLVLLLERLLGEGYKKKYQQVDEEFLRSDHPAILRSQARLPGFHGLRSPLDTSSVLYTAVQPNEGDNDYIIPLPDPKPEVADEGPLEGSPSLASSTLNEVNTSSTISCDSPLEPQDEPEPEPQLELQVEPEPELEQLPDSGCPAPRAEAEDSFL
Experiment: In vitro phospho-Tyr751 PDGFRβ ELISA assay in MG63 osteosarcoma cells
Format: cell-based
Conditions: Test (b); MG63 cells stimulated with PDGFBB; read-out: IC50 versus phospho-Tyr751 PDGFRβ
pIC50: −log10 of the molar value.
measurementKind: pIC50

Fill in reported pIC50 for this entry: `COc1cc2nccc(Oc3cnn(CC(=O)Nc4cccc(F)c4)c3)c2cc1C#N`
~8.70

----------
Target: PDGFRβ tyrosine kinase (Homo sapiens)
Construct: PDGFRα, PDGFRβ and KDR receptor cytoplasmic domains, obtained by expression of recombinant protein in insect cells
Sequence (P09619 554-1106 limits assumed): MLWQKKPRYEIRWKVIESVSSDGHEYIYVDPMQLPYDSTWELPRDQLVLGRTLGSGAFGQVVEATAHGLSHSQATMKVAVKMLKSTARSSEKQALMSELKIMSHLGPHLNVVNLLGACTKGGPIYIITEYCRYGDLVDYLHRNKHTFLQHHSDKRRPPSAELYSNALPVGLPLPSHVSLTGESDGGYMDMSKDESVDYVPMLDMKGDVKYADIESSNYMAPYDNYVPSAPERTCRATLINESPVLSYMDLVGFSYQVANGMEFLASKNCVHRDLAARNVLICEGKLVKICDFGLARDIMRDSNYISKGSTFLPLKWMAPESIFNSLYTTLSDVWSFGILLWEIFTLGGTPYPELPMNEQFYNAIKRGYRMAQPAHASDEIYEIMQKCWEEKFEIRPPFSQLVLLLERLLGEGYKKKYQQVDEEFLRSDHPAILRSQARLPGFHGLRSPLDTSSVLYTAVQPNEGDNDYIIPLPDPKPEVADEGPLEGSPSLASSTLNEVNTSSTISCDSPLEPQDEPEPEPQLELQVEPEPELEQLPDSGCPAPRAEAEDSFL
Experiment: In vitro enzyme assay (ELISA), PDGFRβ tyrosine kinase
pIC50: −log10 of the molar value.
measurementKind: pIC50

Fill in reported pIC50 for this entry: COc1cc2nccc(Oc3cnn(CC(=O)Nc4cccc(F)c4)c3)c2cc1C#N [Example 1]
~7.00

----------
Target: PDGFRα tyrosine kinase (Homo sapiens, UniProt P16234)
Construct: PDGFRα, PDGFRβ and KDR receptor cytoplasmic domains, obtained by expression of recombinant protein in insect cells
Sequence (P16234 550-1089 limits assumed): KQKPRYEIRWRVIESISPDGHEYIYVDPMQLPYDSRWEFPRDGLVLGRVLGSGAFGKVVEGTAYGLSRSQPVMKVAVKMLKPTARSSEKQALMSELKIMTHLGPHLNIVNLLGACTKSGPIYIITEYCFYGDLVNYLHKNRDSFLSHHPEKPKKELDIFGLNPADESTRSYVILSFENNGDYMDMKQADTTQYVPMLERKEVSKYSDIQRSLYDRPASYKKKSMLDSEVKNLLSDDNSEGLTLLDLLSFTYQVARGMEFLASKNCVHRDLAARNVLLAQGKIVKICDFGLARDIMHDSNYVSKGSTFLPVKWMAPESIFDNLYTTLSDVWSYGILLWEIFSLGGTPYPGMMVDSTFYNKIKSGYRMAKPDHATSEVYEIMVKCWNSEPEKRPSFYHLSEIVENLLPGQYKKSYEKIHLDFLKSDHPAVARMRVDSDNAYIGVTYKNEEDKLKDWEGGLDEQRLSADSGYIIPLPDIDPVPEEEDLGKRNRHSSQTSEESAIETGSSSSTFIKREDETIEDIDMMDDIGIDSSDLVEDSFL
Test: In vitro enzyme assay (ELISA), PDGFRα tyrosine kinase
Conditions: Test (a); ATP 14 μM; read-out: IC50 versus PDGFRα tyrosine kinase
pIC50: −log10 of the molar value.
measurementKind: pIC50

Fill in reported pIC50 for this entry: `COc1cc2nccc(Oc3cnn(CC(=O)Nc4cccc(F)c4)c3)c2cc1C#N`
~6.30
